Origin of values: patent USRE48461E1

System: AR mRNA
Assay: Dose-dependent antisense inhibition of human AR in HuVEC cells (electroporation, qRT-PCR RTS3559, IC50)
Type: cell-based
Conditions: 500.0 nM; HuVEC, ~16 h; Table 4
Oligonucleotides are written 5' to 3', each unit as a sugar letter and its base; * is a phosphorothioate linkage, no mark a phosphodiester; rarer units and linkages stand in square brackets, end groups in braces. Plain capitals give the bases only. k = constrained ethyl (cEt); d = 2'-deoxy (DNA)
Classification field: criterion met = percent inhibition of AR at or over 80%; criterion not met = percent inhibition of AR under 80%.

INSERT INTO assay_data (substance, system_tested, classification) VALUES
  ('549459 (kA*kT*kG*dG*dT*dT*dG*dA*dT*dT*dT*dA*dA*kT*kG*kG) [compound 549459]', 'AR mRNA', 'criterion met');

Please look at the following substance next.
Say whether 549458 (kG*kT*kT*dG*dA*dT*dT*dT*dA*dA*dT*dG*dG*kT*kT*kG) [compound 549458] shows percent inhibition of AR of 80% or more.
criterion met

----------
Tested on: AR mRNA
Assay: AR mRNA levels in LMR20 cells (with/without DHT or R1881)
Type: cell-based, human
Details: LMR20 cells, R1881 10 nM 72 hrs, ASO 1.0 μM
Oligonucleotides are written 5' to 3', each unit as a sugar letter and its base; * is a phosphorothioate linkage, no mark a phosphodiester; rarer units and linkages stand in square brackets, end groups in braces. Plain capitals give the bases only. e = 2'-O-(2-methoxyethyl) (MOE); l = locked nucleic acid (LNA); k = constrained ethyl (cEt); [5mC] = 5-methylcytosine; d = 2'-deoxy (DNA)
Quantity measured: AR mRNA levels (% baseline value) after treatment with R1881

Some solved cases for reference:
INSERT INTO measurements (substance, result) VALUES
  ('549458 (kG*kT*kT*dG*dA*dT*dT*dT*dA*dA*dT*dG*dG*kT*kT*kG) [compound 549458]', '25 % baseline value'),
  ('569236 (antisense eT*kG*kA*kT*dT*dT*dA*dA*dT*dG*dG*kT*kT*kG*e[5mC]*eA) [compound 569236]', '44 % baseline value'),
  ('554221 (ACCAAGTTTCTTCAGC; sugars from the 5'' end l3 d10 l3, all phosphorothioate, methylation of C not given here) [compound 554221]', '124 % baseline value');

Now consider the entry below.
Returns the measured AR mRNA levels (% baseline value) after treatment with R1881 for the input substance. Input: 560131 (antisense kT*kT*kG*dA*dT*dT*dT*dA*dA*dT*dG*dG*kT*kT*kG*e[5mC]) [compound 560131]
30 % baseline value

----------
System: prostate-specific antigen (PSA) mRNA
Experiment: PSA mRNA levels in LMR20 cells
Format: cell-based, human
Conditions: LMR20 cells, R1881 10 nM 72 hrs, ASO 5.0 μM
Oligonucleotides are written 5' to 3', each unit as a sugar letter and its base; * is a phosphorothioate linkage, no mark a phosphodiester; rarer units and linkages stand in square brackets, end groups in braces. Plain capitals give the bases only. e = 2'-O-(2-methoxyethyl) (MOE); l = locked nucleic acid (LNA); k = constrained ethyl (cEt); [5mC] = 5-methylcytosine; d = 2'-deoxy (DNA)
Quantity measured: PSA mRNA levels (% baseline value) after treatment with R1881
Returns: string containing the numeric result and its unit.

Some solved cases for reference:
INSERT INTO assay_data (substance, result) VALUES
  ('554221 (ACCAAGTTTCTTCAGC; sugars from the 5'' end l3 d10 l3, all phosphorothioate, methylation of C not given here) [compound 554221]', '57 % baseline value'),
  ('569236 (antisense eT*kG*kA*kT*dT*dT*dA*dA*dT*dG*dG*kT*kT*kG*e[5mC]*eA) [compound 569236]', '41 % baseline value'),
  ('560131 (antisense kT*kT*kG*dA*dT*dT*dT*dA*dA*dT*dG*dG*kT*kT*kG*e[5mC]) [compound 560131]', '35 % baseline value');

Now consider the entry below.
Returns the measured PSA mRNA levels (% baseline value) after treatment with R1881 for the input substance. Input: 549458 (kG*kT*kT*dG*dA*dT*dT*dT*dA*dA*dT*dG*dG*kT*kT*kG) [compound 549458]
44 % baseline value
